# system-under-test: PDE4B (Homo sapiens)
# measurement-protocol: Scintillation Proximity Assay (SPA) of PDE4B enzyme activity ([H3]-cAMP cleavage)
# Type: biochemical
# conditions-used: test substance 1 μM; one-hour incubation with [H3]-cAMP at 30° C.
experimental-endpoint: inhibition at 1 µM (%)

O=C(C1CC1)N1CCc2ccc(OC3CCN(c4nc5c(c(NC6CCOCC6)n4)[S+]([O-])CC5)CC3)cc2CC1 (stereo not drawn) : 94
[O-][S+]1CCc2nc(N3CCC(c4nc(-c5ccccc5)c(-c5ccccc5)o4)CC3)nc(NC3(CO)CC3)c21 (stereo not drawn) : 95
[O-][S+]1CCc2nc(N3CCC(Oc4ccc(F)cc4)CC3)nc(Nc3cccc(F)c3)c21 (stereo not drawn) : 92
Cn1cc(C2CCN(c3nc4c(c(NC5CCOCC5)n3)[S+]([O-])CC4)CC2)c2cc(C(C)(C)C)ccc21 (stereo not drawn) : 95
[O-][S+]1CCc2nc(N3CCC(Oc4ccncc4)CC3)nc(NC3CCOCC3)c21 (stereo not drawn) : 80
CN1CCC(N(C)C(=O)c2cccc(C3CCN(c4nc5c(c(NC6CCOCC6)n4)[S+]([O-])CC5)CC3)c2)CC1 (stereo not drawn) : 88
CN1C[C@@H](Nc2nc(N3CCC(Oc4ccncc4)CC3)nc3c2[S+]([O-])CC3)CCC1=O (stereo partly drawn) : 94
COC(=O)c1cccc(OC2CCN(c3nc4c(c(NC5CCOCC5)n3)[S+]([O-])CC4)CC2)c1 (stereo not drawn) : 93
CS(=O)(=O)NCC1(c2ccccc2)CCN(c2nc3c(c(NC4CCOCC4)n2)[S+]([O-])CC3)CC1 (stereo not drawn) : 87
CN1CCC(N(C)C(=O)c2ccc(C3CCN(c4nc5c(c(NC6CCOCC6)n4)[S+]([O-])CC5)CC3)cc2)CC1 (stereo not drawn) : 94
[O-][S+]1CCc2nc(N3CCC(CO)(c4ccc(Cl)cc4)CC3)nc(NC3(CO)CC3)c21 (stereo not drawn) : 92
O=C(c1ccc(C2CCN(c3nc4c(c(NC5CCOCC5)n3)[S+]([O-])CC4)CC2)cc1)N1CCOCC1 (stereo not drawn) : 83
[O-][S+]1CCc2nc(N3CCC(O)(c4ccc(Cl)cc4)CC3)nc(NC3(CO)CC3)c21 (stereo not drawn) : 81
[O-][S+]1CCc2nc(N3CCC(O)(c4ccc(Cl)cc4)CC3)nc(NC3CCOCC3)c21 (stereo not drawn) : 89
COCC(=O)NCC1(c2ccccc2)CCN(c2nc3c(c(NC4CCOCC4)n2)[S+]([O-])CC3)CC1 (stereo not drawn) : 88

---

# system-under-test: PDE4B (Homo sapiens, UniProt Q07343)
# Sequence (Q07343 whole entry, species assumed): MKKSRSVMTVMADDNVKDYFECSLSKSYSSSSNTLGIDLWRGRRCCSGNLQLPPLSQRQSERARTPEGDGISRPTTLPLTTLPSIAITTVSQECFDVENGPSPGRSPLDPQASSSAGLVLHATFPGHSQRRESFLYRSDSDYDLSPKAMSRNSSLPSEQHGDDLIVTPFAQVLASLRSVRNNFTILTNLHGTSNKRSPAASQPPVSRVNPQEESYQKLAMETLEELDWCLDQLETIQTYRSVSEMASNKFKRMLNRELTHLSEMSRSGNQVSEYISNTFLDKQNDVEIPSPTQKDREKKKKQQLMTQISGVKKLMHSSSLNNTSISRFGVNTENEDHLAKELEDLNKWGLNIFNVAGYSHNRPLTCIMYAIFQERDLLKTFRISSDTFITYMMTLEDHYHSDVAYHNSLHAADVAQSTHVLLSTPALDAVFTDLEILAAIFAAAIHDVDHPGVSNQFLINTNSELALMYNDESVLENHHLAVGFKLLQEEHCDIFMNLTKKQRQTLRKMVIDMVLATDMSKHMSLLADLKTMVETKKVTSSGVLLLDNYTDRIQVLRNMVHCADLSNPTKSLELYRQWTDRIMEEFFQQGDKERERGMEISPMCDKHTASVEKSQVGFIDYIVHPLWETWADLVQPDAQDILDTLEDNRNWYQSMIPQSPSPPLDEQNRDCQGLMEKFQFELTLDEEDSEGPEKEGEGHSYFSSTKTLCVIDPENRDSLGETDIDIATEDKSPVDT
# measurement-protocol: Scintillation Proximity Assay (SPA) of PDE4B enzyme activity ([H3]-cAMP cleavage)
# Type: biochemical
# conditions-used: test substance 1 μM; one-hour incubation of [H3]-cAMP with PDE4B enzyme at 30° C.
experimental-endpoint: inhibition at 1 µM (%)

[O-][S+]1CCc2nc(N3CCC(c4cccc(O)c4)CC3)nc(NC3(CO)CC3)c21 (centres unmarked) : 96
CC(C)c1noc(C2CCN(c3nc4c(c(N[C@@H](CO)C(C)C)n3)[S+]([O-])CC4)CC2)n1 (some centres unmarked) : 86
CN1C[C@@H](Nc2nc(N3CCC(c4cccc(Cl)c4)CC3)nc3c2[S+]([O-])CC3)CCC1=O (some centres unmarked) : 97
[O-][S+]1CCc2nc(N3CCC(c4nnc(-c5ccc(F)cc5)o4)CC3)nc(Nc3cccc(F)c3)c21 (centres unmarked) : 95
[O-][S+]1CCc2nc(N3CCC(c4cc5ccccc5o4)CC3)nc(NC3(CO)CC3)c21 (centres unmarked) : 97
COc1ccc(C2CCN(c3nc4c(c(NC5(CO)CC5)n3)[S+]([O-])CC4)CC2)cc1 (centres unmarked) : 94
[O-][S+]1CCc2nc(N3CCC(c4nnc5ccccn45)CC3)nc(NC3(CO)CC3)c21 (centres unmarked) : 88
CC(C)[C@H](CO)Nc1nc(N2CCC(c3ccc(Cl)cc3)CC2)nc2c1[S+]([O-])CC2 (some centres unmarked) : 93

src = patent US8754073B2
